- assay.comment: In vitro stability in PBS, mouse serum, brain and liver homogenate (FAAddP, FMAddA)
- Assay type: in vitro ADME
- experimental.context: mouse, brain homogenate, pH 7.4, mouse brain homogenate; read-out: half-life in brain homogenate (converted)

compound | u | half-life at 70 μM
[N-]=[N+]=Nc1ncnc2c1ncn2C1OC(CO)CC1F (stereo not shown) | h | 6.1

###

- assay.comment: in vivo
- experimental.context: female, NIH Swiss, mouse, brain, intravenous, 100 mg/kg

smi | Kp
[N-]=[N+]=Nc1ncnc2c1ncn2[C@@H]1O[C@H](CO)[C@@H](O)[C@@H]1O | 0.02

###

- assay.comment: in vivo
- experimental.context: female, NIH-Swiss, mouse, in vivo, po, 55 mg/kg
- Experimental: Animal studies. […] Chromatographic separations were performed using a Hypersil ODS column 150×4.5 mm, 5 μm particle size (Alltech Associates, Deerfield, Ill.) preceded by a guard column packed with 30-40 μm pellicular Perisorb RP-18. […] Eluants were monitored at a UV wavelength of 260 nm. […] Data analysis in vivo studies. Nucleoside concentration as a function of time data were analyzed by a non-compartmental technique. […] Relative brain exposure (re) was calculated from AUCbrain/AUCserum.

compound | bioavailability / %
[N-]=[N+]=Nc1ncnc2c1ncn2C1OC(CO)CC1F (stereo not shown) | 19

###

- assay.comment: in vivo
- experimental.context: female, NIH-Swiss, mouse, in vivo, po, 55 mg/kg, t½
Below is a list of entries, each paired with its recorded half-life value.
observable: half-life (h)

molecule | observable | readout.number
Nc1ncnc2c1ncn2[C@@H]1O[C@H](CO)C[C@@H]1F | half-life | 1.74
O=c1[nH]cnc2c1ncn2[C@@H]1O[C@H](CO)C[C@@H]1F | half-life | 2.92
[N-]=[N+]=Nc1ncnc2c1ncn2C1OC(CO)CC1F (stereo not drawn) | half-life | 1.53

###

- assay.comment: Pharmacokinetics in mouse serum after iv and oral administration of cordycepin or its azide derivative
- Assay type: in vivo, mice
- experimental.context: female, NIH Swiss, in vivo; mouse serum; after oral azide derivative 100 mg/kg; read-out: T½ oral (converted)
observable: half-life (min)

compound | observable | readout.number
Nc1ncnc2c1ncn2[C@@H]1O[C@H](CO)C[C@H]1O [Cordycepin, 3′-deoxyadenosine, reference compound] | half-life | 45.6

###

- assay.comment: in vivo
- experimental.context: female, NIH-Swiss, mouse, in vivo, po, 55 mg/kg, AUC0-τ
observable: AUC (µM·h)

molecule | observable | readout.number
Nc1ncnc2c1ncn2[C@@H]1O[C@H](CO)C[C@@H]1F | AUC | 0.8
O=c1[nH]cnc2c1ncn2[C@@H]1O[C@H](CO)C[C@@H]1F | AUC | 6.7
[N-]=[N+]=Nc1ncnc2c1ncn2C1OC(CO)CC1F (stereo not drawn) | AUC | 34.2

###

- assay.comment: Pharmacokinetics in mouse serum after iv and oral administration of cordycepin or its azide derivative
- Format: in vivo, mice
- experimental.context: female, NIH Swiss, mouse, in vivo, iv, 100 mg/kg
- Method: 100 mg/kg of cordycepin or the azide derivative of cordycepin were administered intravenously (iv) (dissolved in methylsulfoxide (20 mg/ml)), or orally (dissolved in 30% glycerin (8.3 mg/ml)). […] Blood (serum) was collected and immediately analyzed. […] The limit of quantitation was 0.05 μg/ml for cordycepin and metabolite and 0.5 μg/ml for the azide derivative. Plasma concentration versus time data for nucleosides were analyzed by noncompartment methods. […]
observable: half-life (min)

compound | readout.number
O=c1[nH]cnc2c1ncn2[C@@H]1O[C@H](CO)C[C@H]1O [Metabolite, 3′-deoxyinosine] | 30

###

- assay.comment: in vivo
- experimental.context: female, NIH Swiss, mouse, in vivo, iv, 100 mg/kg
observable: concentration at 25 minutes (ng/mL)

compound | observable | u | readout.number
Nc1ncnc2c1ncn2[C@@H]1O[C@H](CO)[C@@H](O)[C@@H]1O [ara-A, 9-(β-D-arabinofuranosyl)adenine, reference compound] | concentration at 25 minutes | ng/mL | 330

###

- assay.comment: Pharmacokinetics in mouse serum after iv and oral administration of cordycepin or its azide derivative
- Type: in vivo, mice
- experimental.context: female, NIH Swiss, mouse, in vivo, po, 100 mg/kg
observable: AUC(0-inf) (ng·h/mL)

compound | u | readout.number
O=c1[nH]cnc2c1ncn2[C@@H]1O[C@H](CO)C[C@H]1O [Metabolite, 3′-deoxyinosine] | ng·h/mL | 5890

###

- assay.comment: In vitro stability in PBS, mouse serum, brain and liver homogenate (FAAddP, FMAddA)
- Format: in vitro ADME
- experimental.context: mouse, liver homogenate, pH 7.4, mouse liver homogenate; biphasic, initial phase; read-out: t1/2 in liver homogenate, initial 45 minutes (converted)

compound | u | half-life at 70 μM
[N-]=[N+]=Nc1ncnc2c1ncn2C1OC(CO)CC1F (stereo not shown) [FAAddP] | min | 28.8

Values from patent US6949521B2
